Target sequence: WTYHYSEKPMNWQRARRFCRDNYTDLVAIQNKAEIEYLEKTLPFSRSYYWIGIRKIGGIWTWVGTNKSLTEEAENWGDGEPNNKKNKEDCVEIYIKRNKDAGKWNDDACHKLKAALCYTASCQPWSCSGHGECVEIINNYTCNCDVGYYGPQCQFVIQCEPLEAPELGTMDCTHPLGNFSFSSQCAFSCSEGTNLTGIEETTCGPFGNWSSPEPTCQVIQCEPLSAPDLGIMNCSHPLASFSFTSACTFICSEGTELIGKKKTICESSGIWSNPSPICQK
EXPERIMENTAL READOUT: IC50 (µM)
Your answer is read as µM, so omit the unit and give the number.

Value of IC50 reported for the compound O=C(O)Cc1cccc(-c2cc(CCCCCc3ccc(O[C@H]4O[C@H](CO)[C@@H](O)[C@H](O)[C@@H]4O)c(-c4cccc(CC(=O)O)c4)c3)ccc2O[C@H]2O[C@H](CO)[C@@H](O)[C@H](O)[C@@H]2O)c1 is 300

Value of IC50 reported for the compound O=C(O)Cc1cccc(-c2cc(CCCCc3ccc(O[C@H]4O[C@H](CO)[C@@H](O)[C@H](O)[C@@H]4O)c(-c4cccc(CC(=O)O)c4)c3)ccc2O[C@H]2O[C@H](CO)[C@@H](O)[C@H](O)[C@@H]2O)c1 is 2000

Value of IC50 reported for the compound O=C(O)Cc1cccc(-c2cc(Cc3ccc(Cc4ccc(O[C@H]5O[C@H](CO)[C@@H](O)[C@H](O)[C@@H]5O)c(-c5cccc(CC(=O)O)c5)c4)cc3)ccc2O[C@H]2O[C@H](CO)[C@@H](O)[C@H](O)[C@@H]2O)c1 is 3000

Value of IC50 reported for the compound O=C(O)COc1cccc(-c2cc(CCCCCCc3ccc(O[C@H]4O[C@H](CO)[C@@H](O)[C@H](O)[C@@H]4O)c(-c4cccc(OCC(=O)O)c4)c3)ccc2O[C@H]2O[C@H](CO)[C@@H](O)[C@H](O)[C@@H]2O)c1 is 1400

Value of IC50 reported for the compound O=C(O)Cc1cccc(-c2cc(Cc3cc(Cc4ccc(O[C@H]5O[C@H](CO)[C@@H](O)[C@H](O)[C@@H]5O)c(-c5cccc(CC(=O)O)c5)c4)cc(Cc4ccc(O[C@H]5O[C@H](CO)[C@@H](O)[C@H](O)[C@@H]5O)c(-c5cccc(CC(=O)O)c5)c4)c3)ccc2O[C@H]2O[C@H](CO)[C@@H](O)[C@H](O)[C@@H]2O)c1 is 500

Value of IC50 reported for the compound O=C(O)Cc1cccc(-c2cc(C(=O)CSCc3cc(CSCC(=O)c4ccc(O[C@H]5O[C@H](CO)[C@@H](O)[C@H](O)[C@@H]5O)c(-c5cccc(CC(=O)O)c5)c4)cc(CSCC(=O)c4ccc(O[C@H]5O[C@H](CO)[C@@H](O)[C@H](O)[C@@H]5O)c(-c5cccc(CC(=O)O)c5)c4)c3)ccc2O[C@H]2O[C@H](CO)[C@@H](O)[C@H](O)[C@@H]2O)c1 is 2000
